Quick reference for fold shift among some compounds
# target: Muscarinic acetylcholine receptor M4 (Homo sapiens) (UniProt P08173)
# Sequence (P08173 whole entry, looked up): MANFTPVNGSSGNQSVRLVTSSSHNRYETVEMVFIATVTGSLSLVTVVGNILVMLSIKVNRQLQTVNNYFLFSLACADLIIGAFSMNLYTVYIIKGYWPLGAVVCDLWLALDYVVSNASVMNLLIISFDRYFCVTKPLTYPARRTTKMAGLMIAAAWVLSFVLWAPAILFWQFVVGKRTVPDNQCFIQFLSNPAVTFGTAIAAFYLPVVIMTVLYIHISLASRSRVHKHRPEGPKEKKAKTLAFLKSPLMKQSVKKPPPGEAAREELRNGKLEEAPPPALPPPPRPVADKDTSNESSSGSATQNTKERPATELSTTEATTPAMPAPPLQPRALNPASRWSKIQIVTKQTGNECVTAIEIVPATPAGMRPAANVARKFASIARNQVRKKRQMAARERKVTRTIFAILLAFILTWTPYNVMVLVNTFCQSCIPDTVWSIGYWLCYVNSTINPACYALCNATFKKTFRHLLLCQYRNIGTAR
# assay details: human M4 positive allosteric modulation fold shift – CHO cells, Gqi5 chimera, calcium mobilization, mechanism study, SAR follow-up (AID 623948)
# stated conditions: CHO hM4/Gqi5 calcium mobilization, ACh fold shift; at 30 µM; hits give high values
// return just the number, without any unit appended

[
  {
    "compound string": "COc1ccc(C)c2sc(NC(=O)c3ccco3)nc12",
    "fold shift": 3.63
  },
  {
    "compound string": "COc1ccc(C)c2sc(NC(=O)c3ccncc3)nc12",
    "fold shift": 14.9
  },
  {
    "compound string": "COc1ccc(C)c2sc(NC(=O)c3cccnc3)nc12",
    "fold shift": 2.93
  },
  {
    "compound string": "COc1ccc(C)c2sc(NC(=O)C3=COCCO3)nc12",
    "fold shift": 5.98
  }
]

Ask: Using the record for COc1ccc(C)c2sc(NC(=O)c3cnccn3)nc12 , report its fold shift.
Result: 3.65
